Where these numbers come from: paper PMC7481290

Listed below: Minimal inhibitory concentration PA^g values for each entry.
Tested on: P. aeruginosa PA01 (H103)
Type: cell-based, Pseudomonas aeruginosa
Details: H103, 18 h
Non-standard residues stand in square brackets, D forms with d. Residues, ends and D or L forms follow the SMILES beside them. N(4-Br-benzyl)Gly = O=C(O)CNCc1ccc(Br)cc1; NBzl(4-I)Gly = O=C(O)CNCc1ccc(I)cc1; Nphe = O=C(O)CNCc1ccccc1; Nlys = NCCCCNCC(=O)O

Prompt line: Look up Minimal inhibitory concentration PA^g for this compound: NCCCCNCC(=O)N(CC(=O)N(CCCCN)CC(=O)N(CC(=O)N(CCCCN)CC(=O)N(CC(=O)N(CCCCN)CC(=O)N(CC(=O)N(CCCCN)CC(=O)N(CC(N)=O)Cc1ccc(I)cc1)Cc1ccccc1)Cc1ccc(I)cc1)Cc1ccccc1)Cc1ccc(I)cc1 [Compound 27] (H-[Nlys][NBzl(4-I)Gly][Nlys][Nphe][Nlys][NBzl(4-I)Gly][Nlys][Nphe][Nlys][NBzl(4-I)Gly]-NH2)
Response line: > 512 µg/mL

Prompt line: # input compound: NCCCCNCC(=O)N(CC(=O)N(CCCCN)CC(=O)N(CC(=O)N(CCCCN)CC(=O)N(CC(=O)N(CCCCN)CC(=O)N(CC(N)=O)Cc1ccc(Br)cc1)Cc1ccccc1)Cc1ccc(Br)cc1)Cc1ccccc1 [Compound 17] (H-[Nlys][Nphe][Nlys][N(4-Br-benzyl)Gly][Nlys][Nphe][Nlys][N(4-Br-benzyl)Gly]-NH2) ; wanted: its Minimal inhibitory concentration PA^g
Response line: 512 µg/mL

Further cases:
Prompt line: So what does the record say about Minimal inhibitory concentration PA^g for NCCCCNCC(=O)N(CC(=O)N(CCCCN)CC(=O)N(CC(=O)N(CCCCN)CC(=O)N(CC(N)=O)Cc1ccc(Br)cc1)Cc1ccc(Br)cc1)Cc1ccc(Br)cc1 [Compound 4] (H-[Nlys][N(4-Br-benzyl)Gly][Nlys][N(4-Br-benzyl)Gly][Nlys][N(4-Br-benzyl)Gly]-NH2) ?
Response line: > 512 µg/mL
